- EXPERIMENTAL_SYSTEM: DNA damage-binding protein 1 (DDB1) (Homo sapiens)
- Construct: with CUL4A
- Sequence (Q16531 whole entry): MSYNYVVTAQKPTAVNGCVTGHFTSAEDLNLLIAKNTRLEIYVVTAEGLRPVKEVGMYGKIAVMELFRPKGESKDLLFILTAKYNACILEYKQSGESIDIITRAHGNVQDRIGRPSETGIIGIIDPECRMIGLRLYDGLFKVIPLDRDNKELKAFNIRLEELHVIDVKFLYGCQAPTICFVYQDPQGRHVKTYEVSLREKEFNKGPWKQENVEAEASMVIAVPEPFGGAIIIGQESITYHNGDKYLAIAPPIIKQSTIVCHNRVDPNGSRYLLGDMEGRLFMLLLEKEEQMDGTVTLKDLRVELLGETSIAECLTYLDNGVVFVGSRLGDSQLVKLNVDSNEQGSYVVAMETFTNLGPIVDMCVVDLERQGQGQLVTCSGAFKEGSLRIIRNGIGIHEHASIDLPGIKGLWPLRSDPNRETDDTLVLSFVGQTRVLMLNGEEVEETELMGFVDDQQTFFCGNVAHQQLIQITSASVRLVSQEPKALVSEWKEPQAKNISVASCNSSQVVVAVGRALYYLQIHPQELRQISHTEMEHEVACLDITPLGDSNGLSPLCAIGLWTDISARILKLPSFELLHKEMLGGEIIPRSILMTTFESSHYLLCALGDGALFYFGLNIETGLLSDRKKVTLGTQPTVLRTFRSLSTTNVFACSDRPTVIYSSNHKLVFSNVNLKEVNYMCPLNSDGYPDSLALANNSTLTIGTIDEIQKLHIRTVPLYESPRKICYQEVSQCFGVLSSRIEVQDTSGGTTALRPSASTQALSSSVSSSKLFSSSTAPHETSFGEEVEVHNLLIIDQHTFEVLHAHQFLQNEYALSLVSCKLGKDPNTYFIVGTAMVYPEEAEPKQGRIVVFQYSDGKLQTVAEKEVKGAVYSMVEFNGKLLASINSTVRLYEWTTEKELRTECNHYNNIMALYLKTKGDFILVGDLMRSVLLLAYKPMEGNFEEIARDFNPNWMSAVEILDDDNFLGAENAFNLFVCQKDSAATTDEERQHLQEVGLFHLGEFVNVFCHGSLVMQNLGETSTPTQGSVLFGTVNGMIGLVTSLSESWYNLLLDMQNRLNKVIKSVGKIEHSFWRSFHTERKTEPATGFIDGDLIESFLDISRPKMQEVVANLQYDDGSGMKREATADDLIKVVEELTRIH
- Sequence (Q13619 whole entry partner): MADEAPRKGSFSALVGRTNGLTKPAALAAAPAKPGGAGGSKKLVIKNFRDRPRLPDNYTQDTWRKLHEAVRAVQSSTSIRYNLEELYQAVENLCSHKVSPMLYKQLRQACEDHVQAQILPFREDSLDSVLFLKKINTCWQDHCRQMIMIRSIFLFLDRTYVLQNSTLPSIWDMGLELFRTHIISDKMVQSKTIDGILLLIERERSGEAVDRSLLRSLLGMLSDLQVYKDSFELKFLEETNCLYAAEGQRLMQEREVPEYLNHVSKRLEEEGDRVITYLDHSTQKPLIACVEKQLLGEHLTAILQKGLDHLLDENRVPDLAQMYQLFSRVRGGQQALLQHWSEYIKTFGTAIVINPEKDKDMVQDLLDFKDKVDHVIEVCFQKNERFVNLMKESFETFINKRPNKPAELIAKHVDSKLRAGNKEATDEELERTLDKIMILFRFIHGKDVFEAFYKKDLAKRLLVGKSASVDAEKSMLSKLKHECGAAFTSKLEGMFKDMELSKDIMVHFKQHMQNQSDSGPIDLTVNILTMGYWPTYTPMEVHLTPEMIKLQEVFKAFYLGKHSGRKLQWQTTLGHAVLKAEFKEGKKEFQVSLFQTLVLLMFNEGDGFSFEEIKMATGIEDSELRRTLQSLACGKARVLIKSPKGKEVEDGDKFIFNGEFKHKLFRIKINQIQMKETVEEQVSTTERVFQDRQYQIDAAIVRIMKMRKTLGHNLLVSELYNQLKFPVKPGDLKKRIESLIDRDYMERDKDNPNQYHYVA
- ASSAY_PROCEDURE: AlphaScreen disruption of purified His-DDB1/GST-CUL4A interaction; in vitro Ni-NTA pulldown with recombinant proteins
MEASURED_METRIC: pIC50
// pIC50 here means minus log10 of the molar concentration (mol/L)

Sample CC(=O)O[C@@H]1c2occc2[C@@H](O)C[C@H]2[C@]3(C)CC[C@H]4C(C)(C)CCC[C@]4(C)[C@H]3C[C@@]21C — what was its pIC50?
5.74

Data origin: paper PMC7053343
